Listing: growth of selected compounds
tested on: SK-MEL-2 melanoma; experiment: NCI-60 one-dose screen, 48 h (100 = growth as untreated, 0 = no growth, -100 = all killed); conditions: 10 µM unless noted
The panel holds about 83,000 compounds, 20% with a hit somewhere; the sample as a whole holds those more often.
All answers are understood in %, so give the number only.

Below, 10 compounds whose answers are already recorded.
>>> df
                                   compound  units_label  value_measured
0  CN1CCN(c2ccc(-c3cc4c(Nc5ccc(F)c(Cl)c5)ncnn4c3)cc2)CC1            %             103
1  COc1cc2cc(Oc3ccc(NC(=O)Nc4ccc(F)c(C(F)(F)F)c4)cc3)c(C)nc2cc1OCCN1CCOCC1            %            14.8
2                          Cc1ccccc1C(=O)NN            %            99.9
3      COc1ccc(CN2c3ccccc3Sc3ccccc32)c(F)c1            %            30.4
4  CSc1ncccc1C(=O)OCC(=O)Nc1oc(C)c2c(C)n[nH]c(=O)c12            %            92.5
5  N[C@@H](Cc1ccccc1)[C@@H](O)C(=O)NCc1ccc(F)cc1            %             117
6  COc1nc2ccccc2cc1-c1nc2c(cnn2-c2ccccc2)c(=O)[nH]1            %            12.9
7  CN(C)c1ccc2nc3ccc(=[N+](C)C)c([N+](=O)[O-])c-3sc2c1            %            47.2
8  CC1(C)C2CC1C1(/C=N/NC(N)=S)C(C2)C(C#N)(C#N)C1(C#N)C#N (stereo unspecified)            %            90.3
9  COc1ccc2cc(C(C)C(=O)Nc3ccc(-c4n[nH]c(=S)n4C4CCCCC4)cc3)ccc2c1 (stereo unspecified)            %              77

Kindly review the next compound as well.
Test item Cc1cccc2c3c(sc12)C(c1ccc(F)cc1)C(C#N)=C(N)O3 (stereo unspecified) ; SK-MEL-2 melanoma; reported growth was 50.1

====

Tested on: SK-MEL-5 melanoma
Assay: NCI-60 one-dose screen, 48 h (100 = growth as untreated, 0 = no growth, -100 = all killed)
Details: 10 µM unless noted
Description: Growth inhibition of the SK-MEL-5 human tumor cell line is measured as a screen for anti-cancer activity. Cells are grown in 96 well plates and exposed to the test compound for 48 hours. Compounds are tested at a single concentration, which is 10^-5 M for most compounds. The reported endpoint is percent growth (GI% or GIPRCNT), where numbers from 0 - 100% represent growth inhibition, and numbers from -100% - 0 represent cell death. For example, a value of 40 represents 60% growth inhibition. […]
About 83,000 compounds went through this panel and 20% of them were active in at least one assay; those are over-represented in the sample as a whole. Activity calls are given as the source filed them. The calls were made as follows: active = growth percent below 10; inactive = the rest.
measured quantity: growth

The compound listed as COc1cccc(-c2nc(-c3ccc(NC(=O)OC(C)C)cc3)[nH]c2-c2ccnc(Br)c2)c1 has a reported growth of 21.9% (inactive)

The compound listed as O=c1c2cc(F)cc(Cl)c2sc2c(NCCCNCCO)nc3ccccc3c12 has a reported growth of 98.9% (inactive)

The compound listed as Cc1ccc(-c2nn(C)c(=O)c3noc(-c4ccc(C)cc4)c23)cc1 has a reported growth of 21.5% (inactive)

Just for reference, PubChem BioAssay (NCI) is where these values come from.
